Data credit: patent EP0227100A2

assay: in vitro; format: cell-based; settings: dog, mdck
PROPERTY: CC50 at 168 h (µg/mL)

# COMPOUND, READOUT NUMBER
rows = [
    ("COc1ccc(Cl)cc1C(=C1CCCCC1)n1cncn1 [Compound I-57]", 70),
]
